The reported measurements were obtained from ChEMBL document CHEMBL5537115.

# ASSAY_EXPLANATION: Hemolytic activity in mouse erythrocytes at 32 ug/ml incubated for 1 hr by absorbance based assay
# Assay type: toxicity, cell-based, Erythrocyte
# PARTICULARS: at 32 µg/mL, read-out: Activity
PROPERTY_NAME: hemolysis at 1 h, 32 ug/ml (%)
Give just the numeric value; % need not be written.

// query Quick one: hemolysis at 1 h, 32 ug/ml of C[n+]1cc(-c2ccccc2)c(/C=C/c2ccc(N3CCCC3)cc2)cc1-c1ccc(C(C)(C)C)cc1.[I-] ?
// result 13.7

====

# Test system: Enterococcus faecalis
# ASSAY_EXPLANATION: Antibacterial activity against vancomycin-susceptible Enterococcus faecalis ATCC29212 assessed as bacterial growth inhibition incubated for 20 hrs by CLSI based broth microdilution method
# Format: functional
hey, just use MET if measured MIC is less than 2 µg/mL, otherwise NOT MET

# example entries with known answers
smi=Cc1ccc(/C=C/c2cc(-c3ccccc3)c[n+](C)c2-c2ccccc2)cc1.[I-] classification="NOT MET"
smi=C[n+]1cc(-c2ccccc2)cc(/C=C/c2ccc(Cl)cc2)c1-c1ccccc1.[I-] classification="NOT MET"
smi=C[n+]1cc(-c2ccccc2)cc(/C=C/c2ccc(F)cc2)c1-c1ccccc1.[I-] classification="NOT MET"
smi=C[n+]1cc(-c2ccccc2)cc(/C=C/c2ccc(C#N)cc2)c1-c1ccccc1.[I-] classification="NOT MET"
smi=CCCCOc1ccc(/C=C/c2cc(-c3ccccc3)c[n+](C)c2-c2ccccc2)cc1.[I-] classification="NOT MET"
smi=C[n+]1cc(-c2ccccc2)cc(/C=C/c2ccc(C(F)(F)F)cc2)c1-c1ccccc1.[I-] classification="NOT MET"

// query Find out if reported MIC for COc1ccc(/C=C/c2cc(-c3ccccc3)c[n+](C)c2-c2ccccc2)cc1.[I-] is less than 2 µg/mL
// result NOT MET

// query Find out if reported MIC for C[n+]1cc(-c2ccccc2)c(/C=C/c2ccc(N3CCCCC3)cc2)cc1-c1ccc2ccccc2c1.[I-] is less than 2 µg/mL
// result MET

// query Find out if reported MIC for CC[C@H]1OC(=O)[C@H](C)[C@@H](O[C@H]2C[C@@](C)(OC)[C@@H](O)[C@H](C)O2)[C@H](C)[C@@H](O[C@@H]2O[C@H](C)C[C@H](N(C)C)[C@H]2O)[C@](C)(O)C[C@@H](C)CN(C)[C@H](C)[C@@H](O)[C@]1(C)O is less than 2 µg/mL
// result MET

// query Find out if reported MIC for C[n+]1cc(-c2ccccc2)c(/C=C/c2ccc(N3CCCC3)cc2)cc1-c1ccc(C(C)(C)C)cc1.[I-] is less than 2 µg/mL
// result MET

// query Find out if reported MIC for CCCCCCCOc1ccc(/C=C/c2cc(-c3ccccc3)c[n+](C)c2-c2ccccc2)cc1.[I-] is less than 2 µg/mL
// result NOT MET

====

# Test system: Staphylococcus aureus
# ASSAY_EXPLANATION: Induction of resistance development in Staphylococcus aureus ATCC25923 assessed as fold increase in MIC at 0.5 times MIC measured after 32 days by multi-passage resistance assay relative to control
# Format: functional
# PARTICULARS: time 32.0 day
PROPERTY_NAME: fold change (FC)
Please respond with just the number, no unit label.

Illustrative cases are given below, each with its answer.
smi=C[n+]1cc(-c2ccccc2)c(/C=C/c2ccc(C(C)(C)C)cc2)cc1-c1ccc(C(C)(C)C)cc1.[I-] property_name="fold change (FC)" result=2
smi=Cc1ccccc1-c1c[n+](C)c(-c2ccc(C(C)(C)C)cc2)cc1/C=C/c1ccc(C(C)(C)C)cc1.[I-] property_name="fold change (FC)" result=2
smi=CO[C@H]1/C=C/O[C@@]2(C)Oc3c(C)c(O)c4c(O)c(c(/C=N/N5CCN(C)CC5)c(O)c4c3C2=O)NC(=O)/C(C)=C\C=C\[C@H](C)[C@H](O)[C@@H](C)[C@@H](O)[C@@H](C)[C@H](OC(C)=O)[C@@H]1C property_name="fold change (FC)" result=8192
smi=C[n+]1cc(-c2ccccc2)c(/C=C/c2ccc(N3CCCC3)cc2)cc1-c1ccc(C(C)(C)C)cc1.[I-] property_name="fold change (FC)" result=2

Next:
// query Quick one: fold change (FC) of Cc1ccccc1-c1c[n+](C)c(-c2ccc(C(C)(C)C)cc2)cc1/C=C/c1ccc(O)cc1.[I-] ?
// result 2

====

# Test system: Klebsiella pneumoniae
# ASSAY_EXPLANATION: Antibacterial activity against Klebsiella pneumoniae ATCC BAA-1902 assessed as bacterial growth inhibition incubated for 20 hrs by CLSI based broth microdilution method
# Type: functional
Quick list: MIC per entry.
Give just the numeric value; µg/mL need not be written.

Illustrative cases are given below, each with its answer.
smi=C[n+]1cc(-c2ccccc2)c(/C=C/c2ccc(C(C)(C)C)cc2)cc1-c1ccc2ccccc2c1.[I-] value_unit=µg/mL result=8
smi=Cc1ccccc1-c1c[n+](C)c(-c2ccc(C(C)(C)C)cc2)cc1/C=C/c1ccc(C(C)(C)C)cc1.[I-] value_unit=µg/mL result=4
smi=CC[C@H]1OC(=O)[C@H](C)[C@@H](O[C@H]2C[C@@](C)(OC)[C@@H](O)[C@H](C)O2)[C@H](C)[C@@H](O[C@@H]2O[C@H](C)C[C@H](N(C)C)[C@H]2O)[C@](C)(O)C[C@@H](C)CN(C)[C@H](C)[C@@H](O)[C@]1(C)O value_unit=µg/mL result=64
smi=C[n+]1cc(-c2ccccc2)c(/C=C/c2ccc(O)cc2)cc1-c1ccccc1.[I-] value_unit=µg/mL result=64
smi=CCCCCCOc1ccc(/C=C/c2cc(-c3ccccc3)[n+](C)cc2-c2ccccc2)cc1.[I-] value_unit=µg/mL result=8

// query Quick one: MIC of CCCOc1ccc(/C=C/c2cc(-c3ccccc3)c[n+](C)c2-c2ccccc2)cc1.[I-] ?
// result 8

====

Quick list: MIC per entry.
# Tested on: Staphylococcus aureus
# ASSAY_EXPLANATION: Antibacterial activity against methicillin-resistant Staphylococcus aureus ATCC43300 assessed as bacterial growth inhibition incubated for 20 hrs by CLSI based broth microdilution method
# Format: functional

smi=CCc1ccc(/C=C/c2cc(-c3ccc(C(C)(C)C)cc3)[n+](C)cc2-c2ccccc2C)cc1.[I-] tested_system="Staphylococcus aureus" property_name=MIC result="0.5 µg/mL"

// query Quick one: MIC of C[n+]1cc(-c2ccccc2)cc(/C=C/c2ccc(F)cc2)c1-c1ccccc1.[I-] ?
// result 8 µg/mL

// query Quick one: MIC of C[n+]1cc(-c2ccccc2)c(/C=C/c2ccc(C(C)(C)C)cc2)cc1-c1ccc(C(C)(C)C)cc1.[I-] ?
// result 0.125 µg/mL

// query Quick one: MIC of CC[C@H]1OC(=O)[C@H](C)[C@@H](O[C@H]2C[C@@](C)(OC)[C@@H](O)[C@H](C)O2)[C@H](C)[C@@H](O[C@@H]2O[C@H](C)C[C@H](N(C)C)[C@H]2O)[C@](C)(O)C[C@@H](C)CN(C)[C@H](C)[C@@H](O)[C@]1(C)O ?
// result > 64 µg/mL

// query Quick one: MIC of C[n+]1cc(-c2ccccc2)cc(/C=C/c2ccc(Cl)c(Cl)c2)c1-c1ccccc1.[I-] ?
// result 2 µg/mL

// query Quick one: MIC of CN(C)c1ccc(/C=C/c2cc(-c3ccc(C(C)(C)C)cc3)[n+](C)cc2-c2ccccc2)cc1.[I-] ?
// result 0.25 µg/mL

====

# System: Staphylococcus aureus
# ASSAY_EXPLANATION: Antibacterial activity against methicillin-resistant Staphylococcus aureus ATCC43300 assessed as bacterial growth inhibition incubated for 20 hrs by CLSI based broth microdilution method
# Assay type: functional
PROPERTY_NAME: MIC (µg/mL)
Give just the numeric value; µg/mL need not be written.

Illustrative cases are given below, each with its answer.
smi=C[n+]1cc(-c2ccccc2)c(/C=C/c2ccc(N)cc2)cc1-c1ccccc1.[I-] tested_system="Staphylococcus aureus" property_name=MIC value_unit=µg/mL result=16
smi=Cc1ccc(/C=C/c2cc(-c3ccccc3)c[n+](C)c2-c2ccccc2)cc1.[I-] tested_system="Staphylococcus aureus" property_name=MIC value_unit=µg/mL result=4
smi=CCCOc1ccc(/C=C/c2cc(-c3ccc(C(C)(C)C)cc3)[n+](C)cc2-c2ccccc2)cc1.[I-] tested_system="Staphylococcus aureus" property_name=MIC value_unit=µg/mL result=0.5

Next:
// query Quick one: MIC of NC(=O)c1c(F)ccc(OCc2nc3cc(Cl)cnc3s2)c1F ?
// result 1

====

# Test system: Escherichia coli
# ASSAY_EXPLANATION: Antibacterial activity against penicillin-susceptible Escherichia coli ATCC25922 assessed as bacterial growth inhibition incubated for 20 hrs by CLSI based broth microdilution method
# Format: functional
Quick list: MIC per entry.

compound=CCCCCOc1ccc(/C=C/c2cc(-c3ccccc3)c[n+](C)c2-c2ccccc2)cc1.[I-] result="4 µg/mL"

// query Quick one: MIC of C[n+]1cc(-c2ccccc2)cc(/C=C/c2ccc(F)cc2)c1-c1ccccc1.[I-] ?
// result > 64 µg/mL

// query Quick one: MIC of CN[C@H](CC(C)C)C(=O)N[C@H]1C(=O)N[C@@H](CC(N)=O)C(=O)N[C@H]2C(=O)N[C@H]3C(=O)N[C@H](C(=O)N[C@H](C(=O)O)c4cc(O)cc(O)c4-c4cc3ccc4O)[C@H](O)c3ccc(c(Cl)c3)Oc3cc2cc(c3O[C@@H]2O[C@H](CO)[C@@H](O)[C@H](O)[C@H]2O[C@H]2C[C@](C)(N)[C@H](O)[C@H](C)O2)Oc2ccc(cc2Cl)[C@H]1O [VANCOMYCIN] ?
// result > 64 µg/mL
